System: HEK293T (UBE3A T485A transfected, BAR Wnt reporter)
Assay: Wnt reporter firefly/Renilla luciferase ratio relative to plate median (fold (linear ratio)); higher = more Wnt/beta-catenin reporter activation
Conditions: concentration: 100 uM; 24 h
The full ranking holds about 1,100 compounds; the median of “Wnt reporter firefly/Renilla luciferase ratio relative to plate median” is about 1.1, and the highest 2% start at about 1.6. The full list was thinned out, with the highest values kept by preference.
experimentalEndpoint: Wnt reporter firefly/Renilla luciferase ratio
Give the figure only, with no unit attached.

Report Wnt reporter firefly/Renilla luciferase ratio for `CC[C@H](NC(=O)c1cc(F)ccc1[N-]S(=O)(=O)c1cccc2cccnc12)c1ccccc1.[Na+]` tested on HEK293T (UBE3A T485A transfected, BAR Wnt reporter).
0.234

Report Wnt reporter firefly/Renilla luciferase ratio for CCCCC(CC)COP(=O)(OCC(CC)CCCC)OCC(CC)CCCC (stereo not drawn) [Tris(2-ethylhexyl) phosphate] tested on HEK293T (UBE3A T485A transfected, BAR Wnt reporter).
0.917

Report Wnt reporter firefly/Renilla luciferase ratio for COc1ccc([N+](=O)[O-])cc1N [2-Methoxy-5-nitroaniline] tested on HEK293T (UBE3A T485A transfected, BAR Wnt reporter).
1.14

----------
Each entry below carries its reported Wnt reporter firefly/Renilla luciferase ratio.
System: HEK293T (UBE3A T485A transfected, BAR Wnt reporter)
Experiment: Wnt reporter firefly/Renilla luciferase ratio relative to plate median (fold (linear ratio)); higher = more Wnt/beta-catenin reporter activation
Details: concentration: 0.1 uM; 24 h
Over roughly 1,100 compounds, “Wnt reporter firefly/Renilla luciferase ratio relative to plate median” has its median near 1.1; the highest 2% begin near 1.6. The entries come from a sample that favours the highest values as a whole.
Give the figure only, with no unit attached.

Observe how each entry below is paired with its result.
Give its Wnt reporter firefly/Renilla luciferase ratio value. Item: `COc1ccc2sc(C(=O)Nc3nnn[n-]3)c(OC(C)C)c2c1.[Na+]`
1.08

Give its Wnt reporter firefly/Renilla luciferase ratio value. Item: CC(C)(C)c1cc(O)c(C(C)(C)C)cc1O [2,5-Di-tert-butylbenzene-1,4-diol]
1.14

Give its Wnt reporter firefly/Renilla luciferase ratio value. Item: CCCCCCC(=O)OCC [Ethyl heptanoate]
1.14

Give its Wnt reporter firefly/Renilla luciferase ratio value. Item: CCCCCOC(C)=O [Pentyl acetate]
1.22

Give its Wnt reporter firefly/Renilla luciferase ratio value. Item: CC[C@H](c1ccc(O)cc1)[C@@H](CC)c1ccc(O)cc1 [meso-Hexestrol]
0.858

Give its Wnt reporter firefly/Renilla luciferase ratio value. Item: OCC(O)CO [Glycerol]
1.1

Give its Wnt reporter firefly/Renilla luciferase ratio value. Item: CC(=O)OCCOCCOCCOC(C)=O [Triethylene glycol diacetate]
1.25

Give its Wnt reporter firefly/Renilla luciferase ratio value. Item: OC(Cn1cncn1)(Cn1cncn1)c1ccc(F)cc1F [Fluconazole]
1.15

Give its Wnt reporter firefly/Renilla luciferase ratio value. Item: C=C(C)C(N)=O [Methacrylamide]
1.22

# input for lookup
Give its Wnt reporter firefly/Renilla luciferase ratio value. Item: CCCCOC(=O)CCCCC(=O)OCCCC [Dibutyl hexanedioate]
0.981

----------
Each entry below carries its reported Wnt reporter firefly/Renilla luciferase ratio.
Test system: HEK293T (UBE3A T485A transfected, BAR Wnt reporter)
Assay: Wnt reporter firefly/Renilla luciferase ratio relative to plate median (fold (linear ratio)); higher = more Wnt/beta-catenin reporter activation
Conditions: concentration: 1 uM; 24 h
Whole data set: some 1,100 compounds, median “Wnt reporter firefly/Renilla luciferase ratio relative to plate median” near 1.1, cut for the highest 2% near 1.6. This is one part of a sample in which the highest values are shown more often than they occur.
Give the figure only, with no unit attached.

Observe how each entry below is paired with its result.
Give its Wnt reporter firefly/Renilla luciferase ratio value. Item: COc1ccc(S(=O)(=O)N2C(=O)[C@@](c3ccccc3OC)(N3C[C@H](O)C[C@H]3C(=O)N(C)C)c3cc(Cl)ccc32)c(OC)c1 [Nelivaptan]
0.857

Give its Wnt reporter firefly/Renilla luciferase ratio value. Item: Oc1ccc2ccccc2c1/N=N/c1ccccc1 [C.I. Solvent Yellow 14]
1.2

Give its Wnt reporter firefly/Renilla luciferase ratio value. Item: N#C[C@@H]1CC(F)(F)CN1C(=O)CNC1CC2CCC(C1)N2c1ncccn1 (some centres undefined)
0.923

Further cases:
Give its Wnt reporter firefly/Renilla luciferase ratio value. Item: `CNC(=O)[C@H]1O[C@@H](n2cnc3c(NCc4cc(Cl)ccc4OCc4cc(C)no4)ncnc32)[C@H](O)[C@@H]1N`
1.17

Give its Wnt reporter firefly/Renilla luciferase ratio value. Item: Cc1cn([C@H]2C=C[C@@H](CO)O2)c(=O)[nH]c1=O [Stavudine]
1.04

Give its Wnt reporter firefly/Renilla luciferase ratio value. Item: O=S(=O)([O-])c1ccc(/N=N/c2c(O)ccc3cc(S(=O)(=O)[O-])ccc23)cc1.[Na+].[Na+] [FD&C Yellow 6]
0.966

Give its Wnt reporter firefly/Renilla luciferase ratio value. Item: OC[C@H]1O[C@@H]2O[C@H]3[C@H](O)[C@@H](O)[C@@H](O[C@H]4[C@H](O)[C@@H](O)[C@@H](O[C@H]5[C@H](O)[C@@H](O)[C@@H](O[C@H]6[C@H](O)[C@@H](O)[C@@H](O[C@H]7[C@H](O)[C@@H](O)[C@@H](O[C@H]1[C@H](O)[C@H]2O)O[C@@H]7CO)O[C@@H]6CO)O[C@@H]5CO)O[C@@H]4CO)O[C@@H]3CO [alpha-Cyclodextrin]
1.09

Give its Wnt reporter firefly/Renilla luciferase ratio value. Item: CCOC(=O)c1ccc(O)cc1 [Ethylparaben]
0.966

Give its Wnt reporter firefly/Renilla luciferase ratio value. Item: `CC(C)c1cccc(C(C)C)c1NC(=O)[N-]S(=O)(=O)c1cc(C(C)(C)O)co1.[Na+]`
1.08

Give its Wnt reporter firefly/Renilla luciferase ratio value. Item: CC(C)(C)c1cc(O)c(C(C)(C)C)cc1O [2,5-Di-tert-butylbenzene-1,4-diol]
0.988

Give its Wnt reporter firefly/Renilla luciferase ratio value. Item: O=C(CCCN1CCC(O)(c2ccc(Cl)cc2)CC1)c1ccc(F)cc1 [Haloperidol]
0.984

This collection of values is drawn from the supplement of paper PMC9254222.
